Attribution: paper PMC6127322

tested on: Salmonella Enteritidis; assay: Dose-response assay (MBC) on Salmonella serovars; type: cell-based; conditions: Salmonella enterica; serovar Enteritidis, M9 broth
OBSERVABLE: MBC (µM)

> print(dat)
                                   molecule  obs.value
1  CN(CCO)CC(O)Cn1c2ccc(Br)cc2c2cc(Br)ccc21 (stereo not shown)        200
2   CCOc1cc(/C=N/N=C(N)N)ccc1OCc1ccc(Cl)cc1         50
3          CCCCCCCCCCCCCCCC[n+]1ccn(CC#N)c1         25
4  CC1CCC(C(C)C)C(OC(=O)Cn2c[n+](CC(=O)OC3CC(C)CCC3C(C)C)c3ccccc32)C1 (stereo not shown)        100

====

system: Salmonella Saint-Paul; assay: Dose-response assay (MBC) on Salmonella serovars; assay type: cell-based, Salmonella enterica; settings: serovar Saint-Paul, M9 broth
OBSERVABLE: MBC (µM)

> print(dat)
                                   molecule  observable  obs.value
1   CCOc1cc(/C=N/N=C(N)N)ccc1OCc1ccc(Cl)cc1         MBC         50
2  CC1CCC(C(C)C)C(OC(=O)Cn2c[n+](CC(=O)OC3CC(C)CCC3C(C)C)c3ccccc32)C1 (stereo not shown)         MBC        100
3          CCCCCCCCCCCCCCCC[n+]1ccn(CC#N)c1         MBC         50
4  CN(CCO)CC(O)Cn1c2ccc(Br)cc2c2cc(Br)ccc21 (stereo not shown)         MBC        200

====

Attribute: MBC
tested on: nine Salmonella serotypes; test: Activity spectrum and dose-response across Salmonella serotypes; type: cell-based, Salmonella enterica; conditions: Salmonella, read-out: MBCs among the nine serotypes
OBSERVABLE: MBC

> print(dat)
                                   compound      obs.value
1  CC1CCC(C(C)C)C(OC(=O)Cn2c[n+](CC(=O)OC3CC(C)CCC3C(C)C)c3ccccc32)C1 (stereo not shown)   50 to 100 µM
2          CCCCCCCCCCCCCCCC[n+]1ccn(CC#N)c1    25 to 50 µM
3   CCOc1cc(/C=N/N=C(N)N)ccc1OCc1ccc(Cl)cc1   25 to 100 µM
4  CN(CCO)CC(O)Cn1c2ccc(Br)cc2c2cc(Br)ccc21 (stereo not shown)  100 to 200 µM

====

test system: Salmonella Javiana; assay: Dose-response assay (MBC) on Salmonella serovars; type: cell-based, Salmonella enterica
OBSERVABLE: MBC (µM)

> print(dat)
                                   compound  unit.text  obs.value
1  CN(CCO)CC(O)Cn1c2ccc(Br)cc2c2cc(Br)ccc21 (stereo not shown) [SM2]         µM        200
2  CC1CCC(C(C)C)C(OC(=O)Cn2c[n+](CC(=O)OC3CC(C)CCC3C(C)C)c3ccccc32)C1 (stereo not shown) [SM1]         µM        100
3  CCOc1cc(/C=N/N=C(N)N)ccc1OCc1ccc(Cl)cc1 [SM5]         µM         50
4    CCCCCCCCCCCCCCCC[n+]1ccn(CC#N)c1 [SM3]         µM         25

====

We begin with a simple list: items and their reported IC50.
test system: S. Typhimurium in THP-1 cells; assay: S. Typhimurium survival in infected cell lines; type: cell-based, Salmonella enterica subsp. enterica serotype Typhimurium; conditions: Salmonella enterica, internalized S. Typhimurium, 24 hrs, estimated
OBSERVABLE: IC50

> print(dat)
                                   compound  observable    obs.value
1  CC1CCC(C(C)C)C(OC(=O)Cn2c[n+](CC(=O)OC3CC(C)CCC3C(C)C)c3ccccc32)C1 (stereo not drawn)        IC50      < 50 µM
2   CCOc1cc(/C=N/N=C(N)N)ccc1OCc1ccc(Cl)cc1        IC50      < 25 µM
3          CCCCCCCCCCCCCCCC[n+]1ccn(CC#N)c1        IC50  25 to 50 µM
